Values compiled from the supplement of paper PMC10598134.

collision cross section overview
Experiment: collision cross section of modified peptide (TIMS, N2, iRT-aligned); higher = larger / more extended gas-phase ion
Conditions: charge state: 3; modification: Dimethyl (K)
± gives the standard deviation.
attributeMeasured: collision cross section

[[record]]
entrysequence = "LLIVSTTPYSEKDTK [_LLIVSTTPYSEK(Dimethyl (K))DTK_]"
testvalue = "505.24 ± 1.6 Å²"

[[record]]
entrysequence = "ISSNFSSIIAEKLR [_ISSNFSSIIAEK(Dimethyl (K))LR_]"
testvalue = "495.15 ± 0.74 Å²"

[[record]]
entrysequence = "DTGEKLTVAENEAETK [_DTGEK(Dimethyl (K))LTVAENEAETK_]"
testvalue = "481.58 ± 2.1 Å²"

[[record]]
entrysequence = "DYSAPVNFISAGLKK [_DYSAPVNFISAGLK(Dimethyl (K))K_]"
testvalue = "517.49 ± 1.2 Å²"

[[record]]
entrysequence = "LQEKVESAQSEQK [_LQEK(Dimethyl (K))VESAQSEQK_]"
testvalue = "455.71 ± 2.1 Å²"

[[record]]
entrysequence = "VGLQVVAVKAPGFGDNR [_VGLQVVAVK(Dimethyl (K))APGFGDNR_]"
testvalue = "490.92 ± 1.2 Å²"

[[record]]
entrysequence = "ANEKTESSSAQQVAVSR [_ANEK(Dimethyl (K))TESSSAQQVAVSR_]"
testvalue = "490.79 ± 1.6 Å²"

[[record]]
entrysequence = "SLEEEGAAHSGKR [_SLEEEGAAHSGK(Dimethyl (K))R_]"
testvalue = "453.89 ± 1.2 Å²"

[[record]]
entrysequence = "SEASSEFAKK [_SEASSEFAK(Dimethyl (K))K_]"
testvalue = "422.66 ± 2.8 Å²"

[[record]]
entrysequence = "LEEVTGKLQVAR [_LEEVTGK(Dimethyl (K))LQVAR_]"
testvalue = "471.08 ± 2.1 Å²"

